System: A549 NSCLC
Assay: NCI tumour cell line growth inhibition, 48 h
Listed below: TGI values for each entry.
measurement name: TGI

>>> result("Cc1cn([C@H]2C[C@](C)(CO)N(C)O2)c(=O)[nH]c1=O")
"> 100 µM"
>>> result("O=C([CH-]C(=O)c1ccccc1)c1ccccc1.O=C([CH-]C(=O)c1ccccc1)c1ccccc1.[O]=[U+2]=[O]")
"18.7 µM"
>>> result("Cc1ncc([N+](=O)[O-])n1CCNS(=O)(=O)CCCn1ncnc1[N+](=O)[O-]")
"> 100 µM"
>>> result("CC(C)(C)c1ccc(OCC(=O)O)c(Cl)c1")
"> 100 µM"
>>> result("CCCOC(=O)NC(C)C(=O)NC(CCC(=O)NC(CCCC(N)C(=O)O)C(=O)NC(C)C(=O)O)C(=O)O (centres undefined)")
"> 100 µM"
>>> result("NC(=S)N/N=C/c1cc(-c2cccc(N)c2)ccn1")
"> 51.3 µM"
>>> result("C=C(C)[C@@]1(O[Si](C)(C)C)CCCC[C@@H]1CC(Sc1ccccc1)Sc1ccccc1")
"23.1 µM"
>>> result("CCN(CC)c1cc2oc3cc(N)cc(=N)c-3nc2cc1C")
"18.3 µM"
>>> result("Cc1cccc(C)c1NC(=O)C(=O)CC(=O)c1cccc([N+](=O)[O-])c1")
"> 100 µM"
>>> result("CC(C(=O)n1c2ccccc2c2ccccc21)N(c1ccccc1)c1ccccc1 (centres undefined)")
"38.5 µM"
>>> result("CCCCC#CS(=O)(=O)C(F)(F)F")
"> 100 µM"
>>> result("C=C1C(=O)OC2/C=C(/C)C3(O)OC(C)(CC(OC(=O)C(C)C)C12)CC3OC(C)=O (centres undefined)")
"> 100 µM"
>>> result("O/C(=C\\c1nc2ccccc2nc1NC12CC3CC(CC(C3)C1)C2)c1ccc(Br)cc1")
"> 10 µM"
>>> result("O=C(O)C12CC3(C(=O)O)CC(C(=O)O)(CC(C(=O)O)(C1)C3=O)C2=O")
"> 100 µM"
>>> result("OCCNCCOc1ccc(/C(=C(/Cl)c2ccccc2)c2ccccc2)cc1")
"12.8 µM"
>>> result("CCC(=O)Nc1ccc(N=NN(C)C)cc1")
"> 100 µM"
>>> result("Cc1cc2c(nn1)-c1ccccc1C2=O")
"> 10 µM"
>>> result("N#CC(C(=O)CCC(=O)Nc1cccc(C(F)(F)F)c1)c1ccc(Cl)cc1 (centres undefined)")
"> 100 µM"
>>> result("Nc1nc(N)nc(CCCc2nc(N)nc(N)n2)n1")
"> 100 µM"
>>> result("COc1cc(C(=O)C/C(CCC(=O)Nc2ccc(Cl)cc2Cl)=N/NC(=O)C(=O)NN)ccc1O")
"> 100 µM"
>>> result("CC(C)(C)C(=O)C(Cc1ccccc1)C(=O)C(C)(C)C")
"> 100 µM"
>>> result("CN1COCc2cc3cc4c(cc3nc21)OCCO4")
"> 100 µM"
>>> result("COc1cc2c(c(O)c1O)-c1ccc(OC)c(=O)cc1C(NC(C)=O)CC2 (centres undefined)")
"> 100 µM"
>>> result("COc1ccc(N=C2C(=S)N(c3ccc(OC)cc3)/C(=N/S(=O)(=O)c3ccccc3)N2c2ccccc2)cc1")
"> 73.1 µM"
>>> result("O=c1oc2ccc(Br)cc2c(=O)n1-c1ccc(F)cc1F")
"> 100 µM"
>>> result("COC(=O)C1OC(O[C@H]2CC[C@]3(C)[C@H]4CC=C5[C@@H]6CC(C)(C)CC[C@]6(C(=O)OC6OCC(O)C(O)C6OC6OC(C)C(OC7OCC(OC8OCC(O)C(O)C8O)C(O)C7O)C(O)C6O)[C@H](O)C[C@@]5(C)[C@]4(C)CC[C@H]3C2(C)C)C(O)C(O)C1O (some centres undefined)")
"9.63 µM"
>>> result("Nc1nc(Nc2ccccc2)sc1C(=O)c1c[nH]c2ccccc12")
"23.7 µM"
>>> result("Cc1ccc(Nc2nnc(-c3ccc4c(c3)OCO4)o2)c(C)c1")
"> 100 µM"
>>> result("COP(=O)(OC)C12CCOCCN1c1ccccc1C2=O (centres undefined)")
"> 100 µM"
>>> result("Clc1ccc(N=CNc2ccc(-c3nc4ccccc4o3)cc2)cc1")
"> 100 µM"
>>> result("Cn1cc(-c2ccc(-c3cncc(Cl)c3N3CCC4(CCNC4=O)CC3)cc2)cn1")
"> 100 µM"
>>> result("O=C(O)CSC(NC(=O)C(C(F)(F)F)C(F)(F)F)(C(F)(F)F)C(F)(F)F")
"> 100 µM"
>>> result("COc1ccc(Cc2cnc(NC(=O)c3ccc4c(c3)OCCO4)s2)cc1")
"> 100 µM"
>>> result("O=C(CCc1cccc(O)c1)NCCCNC(=O)CCc1cccc(O)c1")
"> 100 µM"
>>> result("COc1cc(CNc2nc3cc(C(F)(F)F)ccc3nc2-c2ccccc2)cc(OC)c1OC")
"> 100 µM"
>>> result("Nc1nc(N)c2cc(CNc3ccc(C(=O)NC(CC(=O)O)C(=O)O)c(Cl)c3)ccc2n1 (centres undefined)")
"> 500 µM"
>>> result("C/C(=N\\NC(=S)N1CC2CCC(CC2)C1)c1ccccn1")
"1.66 µM"
>>> result("COc1ccccc1N1CCN(CCCNC(=O)c2cc(Cl)c(N)c(Cl)c2)CC1")
"> 100 µM"
>>> result("O=C(N/N=C/c1c(Cl)cccc1Cl)c1ccc(C(F)(F)F)nc1Nc1cccc(C(F)(F)F)c1")
"> 36.1 µM"

###

Tested on: HL-60(TB) leukemia
Test: NCI tumour cell line growth inhibition, 48 h
Quick rule: TGI of at least 40 µM means true (1), below that means false (0).

>>> group_label("COc1cc(C(=O)N2CCc3c([nH]c4c([N+](=O)[O-])c(OC)ccc34)C2C)cc(OC)c1OC (stereo not given)")
"true (1)"
>>> group_label("Nc1nc(Nc2ccccc2)sc1C(=O)c1c[nH]c2ccccc12")
"true (1)"
>>> group_label("CC1CN1c1c(C(=O)/C=C/c2ccc(Cl)cc2)c(-c2ccccc2)nn(C)c1=O (stereo not given)")
"false (0)"
>>> group_label("C=C1CC[C@@H](C(C)C)C[C@@H]2[C@H]([C@H](O)C[C@]2(C)O)[C@@]2(C)CC[C@@H]1O2")
"true (1)"
>>> group_label("O=C1C(=O)N(c2cc(Cl)ccc2Cl)C(=O)C(=O)C1c1nc2ccccc2o1")
"true (1)"
>>> group_label("COC(=O)C1(Cc2ccc3c(c2)CCC3)Cc2ccccc2C1=O (stereo not given)")
"false (0)"
>>> group_label("CCC(=O)Nc1ccc(N=NN(C)C)cc1")
"true (1)"
>>> group_label("NC(=O)c1ncn2c1NC(=O)CC2")
"true (1)"
>>> group_label("COC(=O)C1(Cc2ccc3c(c2)CCC3)Cc2cc3c(cc2C1)CCC3")
"true (1)"
>>> group_label("C[C@]1(S(=O)(=O)c2ccccc2)C[C@H]2N(Cc3ccccc3)[C@@H]1CCC21OCCO1")
"false (0)"
>>> group_label("CC(C)CCn1nc(N)c2nc3ccccc3nc21")
"true (1)"
>>> group_label("O=C1CS(=O)C23c4cc5ccccc5n4CCC2CCCN13 (stereo not given)")
"true (1)"
>>> group_label("Cc1cn([C@H]2C[C@](C)(CO)N(C)O2)c(=O)[nH]c1=O")
"true (1)"
>>> group_label("Cc1cc2nc(-c3cc(C(C)(C)C)c(O)c(C(C)(C)C)c3)[nH]c2cc1C")
"true (1)"
>>> group_label("CC1=C(C(=O)Nc2ccccc2)C(c2ccc(C3C(C(=O)Nc4ccccc4)=C(C)NC(C)=C3C(=O)Nc3ccccc3)cc2)C(C(=O)Nc2ccccc2)=C(C)N1")
"false (0)"
>>> group_label("N.N.NCCCCCCCCCN.O=C([O-])CC(=O)[O-].O=C([O-])CC(=O)[O-].[Pt+4].[Pt+4]")
"true (1)"
>>> group_label("N#CC(C(=O)CCC(=O)Nc1cccc(C(F)(F)F)c1)c1ccc(Cl)cc1 (stereo not given)")
"true (1)"

###

Tested on: 786-0 renal
Assay: NCI tumour cell line growth inhibition, 48 h
Listed below: TGI values for each entry.
measurement name: TGI

>>> result("CC1=CC(=O)C(C(O)(C(F)(F)F)C(F)(F)F)C(C)(C)C1 (stereo not given)")
"> 10 µM"
>>> result("COc1cc2c(cc1OC)C13CC[N+]4(C)CC5=CCOC6CC(=O)N2C1C6C5CC34[O-] (stereo not given)")
"> 100 µM"
>>> result("COC(=O)/C(=C\\c1ccc(N(CCC#N)CCC#N)cc1)NC(=O)c1cc([N+](=O)[O-])ccc1Cl")
"> 100 µM"
>>> result("O=C(OCC(OC(=O)c1ccccc1)C(OC(=O)c1ccccc1)C(OC(=O)c1ccccc1)c1cnn(-c2ccccc2)n1)c1ccccc1 (stereo not given)")
"> 100 µM"
>>> result("COc1ccc2c3c(Nc4ccc(/C(C)=N/O)cc4)[nH]c4ccccc4c-3c(N=O)c2c1")
"28.2 µM"
>>> result("CCCOC(=O)NC(C)C(=O)NC(CCC(=O)NC(CCCC(N)C(=O)O)C(=O)NC(C)C(=O)O)C(=O)O (stereo not given)")
"> 100 µM"
>>> result("Cc1cc2nc(-c3cc(C(C)(C)C)c(O)c(C(C)(C)C)c3)[nH]c2cc1C")
"2.73 µM"
>>> result("CC(C)(C)C(=O)C(Cc1ccccc1)C(=O)C(C)(C)C")
"> 100 µM"
>>> result("COC(=O)c1cc2c(cc1CC(Cc1ccc3c(c1)CCC3)C(=O)OC)CCC2 (stereo not given)")
"> 100 µM"
>>> result("O=[N+]([O-])c1ccc(CSCc2ccc(Cl)cc2)cc1")
"> 100 µM"
>>> result("Cc1cccc(C)c1NC(=O)C(=O)CC(=O)c1cccc([N+](=O)[O-])c1")
"> 100 µM"
>>> result("N#Cc1ccc(OC(=O)Nc2ccc(Cl)c(Cl)c2)cc1")
"61.2 µM"
>>> result("CC(=O)OCCOCNC(=S)N/N=C/c1ccc(Br)s1")
"> 100 µM"
>>> result("CCOC(CN(C)C(=S)Nc1cccc2ccccc12)OCC")
"> 10 µM"
>>> result("OCC(O)C(O)C(O)/C=N/Nc1nc(O)c(/C=C2\\C=Nc3ccccc32)[nH]1 (stereo not given)")
"> 100 µM"
>>> result("CC(=O)OC1C2CCC1C1C2C2(Cl)C(Cl)=C(Cl)C1(Cl)C2(Cl)Cl (stereo not given)")
"27.1 µM"
>>> result("CCN(CC)c1cc2oc3cc(N)cc(=N)c-3nc2cc1C")
"70.1 µM"
>>> result("CC1=C(c2cc(C(=O)Nc3ccc(Cl)cc3)nc(=S)[nH]2)Sc2ccccc2N1")
"> 100 µM"
>>> result("Cc1cn([C@H]2C[C@](C)(CO)N(C)O2)c(=O)[nH]c1=O")
"> 100 µM"
>>> result("COc1ccc(/C=C(/c2ccccc2)[N+](=O)[O-])cc1")
"2.96 µM"
>>> result("COc1ccc(N=C2C(=S)N(c3ccc(OC)cc3)/C(=N/S(=O)(=O)c3ccccc3)N2c2ccccc2)cc1")
"19.7 µM"
>>> result("CCCCc1c2c(nc3c1CCC/C3=C\\c1ccccc1)/C(=C/c1ccccc1)CCC2")
"> 100 µM"
>>> result("C=C1C(=O)OC2/C=C(/C)C3(O)OC(C)(CC(OC(=O)C(C)C)C12)CC3OC(C)=O (stereo not given)")
"> 100 µM"
>>> result("COC1=C(Br)C(=O)c2nc(C)ccc2C1=O")
"27.2 µM"
>>> result("CN(C)P(=O)(Oc1occc1C(O)Cc1ccccc1)N(C)C (stereo not given)")
"> 100 µM"
